Target: T1, cynomolgus CD3 on HSC-F cells (cynomolgus, UniProt Q95LI5 22-198)
T1 construct: whole, on cells; also called Cyno HSC-F; cynomolgus HSC-F cells
T1 sequence (Q95LI5 22-198): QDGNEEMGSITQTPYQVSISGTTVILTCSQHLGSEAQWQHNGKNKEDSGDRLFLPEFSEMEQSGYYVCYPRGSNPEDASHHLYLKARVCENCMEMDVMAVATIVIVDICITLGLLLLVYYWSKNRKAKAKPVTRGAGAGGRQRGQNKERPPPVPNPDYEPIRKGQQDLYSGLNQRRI
Assay: flow cytometry, yeast-produced IgG 100 nM on HSC-F cells, pH 7.4
reported endpoint: NCB
Reply briefly: the number, and no unit.

Req: Consider the binder ADI-79848 (Antibody No. 9), human IgG1 (antibody, V domains shown, Tested as yeast-produced aglycosylated human IgG1) VH: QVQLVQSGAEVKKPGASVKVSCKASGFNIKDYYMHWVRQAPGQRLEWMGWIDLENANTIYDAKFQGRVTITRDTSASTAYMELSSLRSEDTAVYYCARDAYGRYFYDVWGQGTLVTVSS VL: DIVMTQSPDSLAVSLGERATINCKSSQSLLNARTGHNYLAWYQQKPGQPPKLLIYWASTRESGVPDRFSGSGSGTDFTLTISSLQAEDVAVYYCKQSYSRRTFGGGTKVEIK and give its measured NCB.
Resp: 173

Req: Consider the binder ADI-74968 (Antibody No. 6), human IgG1 (antibody, V domains shown, Tested as human IgG1 (yeast-produced aglycosylated, or CHO-produced)) VH: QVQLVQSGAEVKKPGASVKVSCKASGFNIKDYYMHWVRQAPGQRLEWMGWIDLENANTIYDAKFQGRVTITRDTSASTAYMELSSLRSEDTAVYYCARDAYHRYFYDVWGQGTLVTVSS VL: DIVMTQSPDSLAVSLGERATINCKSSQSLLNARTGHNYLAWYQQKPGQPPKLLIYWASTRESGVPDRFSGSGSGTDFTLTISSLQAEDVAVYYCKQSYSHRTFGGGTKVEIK and give its measured NCB.
Resp: 106

Req: Consider the binder ADI-26906 (Antibody No. 1), human IgG1 (antibody, V domains shown, Non-pH-dependent parent; Tested as human IgG1 (yeast-produced aglycosylated, or CHO-produced); also called Ab No. 1) VH: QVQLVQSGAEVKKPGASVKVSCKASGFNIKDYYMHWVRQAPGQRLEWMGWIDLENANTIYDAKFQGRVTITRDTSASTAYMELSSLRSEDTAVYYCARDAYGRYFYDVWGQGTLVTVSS VL: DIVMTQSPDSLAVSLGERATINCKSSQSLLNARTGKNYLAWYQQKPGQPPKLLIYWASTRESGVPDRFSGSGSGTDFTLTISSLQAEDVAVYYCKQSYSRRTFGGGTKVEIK and give its measured NCB.
Resp: 167

// data source = patent US20260152557A1
